Tested on: human hepatoma HepG2 cells
procedure-summary: Antiproliferative activity, SRB assay, HepG2
Format: cell-based
assay-context: read-out: IC50 HepG2 48 h; HepG2, 48 h, SRB
measure: pIC50
Please treat pIC50 as minus the base-10 logarithm of the molar concentration.

Just so you know, measured pIC50 for "CCCC[P+](c1ccccc1)(c1ccccc1)c1ccccc1" came out at 4.89

---

System: human hepatic L02 cells
procedure-summary: Antiproliferative activity, SRB assay, L02
Format: cell-based
assay-context: read-out: IC50 L02 24 h; L02, 24 h, SRB
measure: IC50 (µM)
API: value field is a number in µM; no unit string.

"CCCC[P+](c1ccccc1)(c1ccccc1)c1ccccc1" has a reported IC50 of 121
